- experiment notes: Cytotoxicity against human Caco-2 cells assessed as cell count for 48 hrs by Hoechst dye based analysis
- Assay type: toxicity
observed property: CC50 at 48 h

Endpoint output: CC50 at 48 h of CCCCCCC[C@@H](O)CC(=O)N[C@@H](CC(C)C)C(=O)N[C@H](CCC(N)=O)C(=O)N[C@H]1C(=O)N[C@H](C(C)C)C(=O)N[C@H](CC(C)C)C(=O)N[C@H](CO)C(=O)N[C@@H](CC(C)C)C(=O)N[C@H](CO)C(=O)N[C@@H]([C@@H](C)CC)C(=O)O[C@@H]1C . Value?
> 20 µM
